Biological target: hPR (Homo sapiens, UniProt P06401)
Sequence (P06401 679-933 limits assumed): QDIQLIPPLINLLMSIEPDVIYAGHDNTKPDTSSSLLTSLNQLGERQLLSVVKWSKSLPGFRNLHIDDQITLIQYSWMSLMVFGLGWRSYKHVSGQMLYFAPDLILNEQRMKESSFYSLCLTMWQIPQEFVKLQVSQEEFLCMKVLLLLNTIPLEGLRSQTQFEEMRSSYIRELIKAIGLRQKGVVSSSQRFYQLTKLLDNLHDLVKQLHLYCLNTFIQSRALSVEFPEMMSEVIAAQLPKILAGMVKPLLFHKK
Assay: T47D alkaline phosphatase assay, antagonist mode
Format: cell-based
Conditions: T47D human breast cancer cells; read-out: hPR Antagonists T47D Cells IC50
quantity.kind: pIC50
Scale: pIC50 equals -log10([C]), with [C] in mol/L.

Here are 4 compounds together with their reported answers.
compound	endpoint.value
CC#CC1Oc2c(F)cc(F)cc2-c2ccc3c(c21)C(C)=CC(C)(C)N3 (racemic)	7.28
CC1=CC(C)(C)Nc2ccc3c(c21)C(c1cccc(Cl)c1)Oc1c(F)cc(F)cc1-3 (racemic)	6.87
CC1=CC(C)(C)Nc2ccc3c(c21)C(c1ccc(Cl)c(C)c1)Oc1c(F)cc(F)cc1-3 (racemic) [Compound 37]	6.82
CC1=CC(C)(C)Nc2ccc3c(c21)/C(=C/c1ccccc1)Oc1c(F)cc(F)cc1-3	7.01

So what's the measured pIC50 for this one? `CC1=CC(C)(C)Nc2ccc3c(c21)/C(=C/c1ccsc1)Oc1c(F)cc(F)cc1-3`
6.08

Now consider `COc1ccc(F)cc1/C=C1\Oc2c(F)cc(F)cc2-c2ccc3c(c21)C(C)=CC(C)(C)N3` .
6.21

Now consider CC1=CC(C)(C)Nc2ccc3c(c21)C(c1cccc(C)c1)Oc1c(F)cc(F)cc1-3 (racemic) .
6.25

Now consider `CC1=CC(C)(C)Nc2ccc3c(c21)/C(=C/c1ccncc1C)Oc1c(F)cc(F)cc1-3` .
6.77

---

Molecular target: hPR (Homo sapiens)
Assay: hPR cotransfection assay in CV-1 cells, agonist mode
Format: cell-based
Settings: CV-1, CV-1 cells; relative to maximal response of progesterone as 100%; read-out: hPR Agonist CV-1 Cells Eff. (%)
Sequence (P06401 whole entry): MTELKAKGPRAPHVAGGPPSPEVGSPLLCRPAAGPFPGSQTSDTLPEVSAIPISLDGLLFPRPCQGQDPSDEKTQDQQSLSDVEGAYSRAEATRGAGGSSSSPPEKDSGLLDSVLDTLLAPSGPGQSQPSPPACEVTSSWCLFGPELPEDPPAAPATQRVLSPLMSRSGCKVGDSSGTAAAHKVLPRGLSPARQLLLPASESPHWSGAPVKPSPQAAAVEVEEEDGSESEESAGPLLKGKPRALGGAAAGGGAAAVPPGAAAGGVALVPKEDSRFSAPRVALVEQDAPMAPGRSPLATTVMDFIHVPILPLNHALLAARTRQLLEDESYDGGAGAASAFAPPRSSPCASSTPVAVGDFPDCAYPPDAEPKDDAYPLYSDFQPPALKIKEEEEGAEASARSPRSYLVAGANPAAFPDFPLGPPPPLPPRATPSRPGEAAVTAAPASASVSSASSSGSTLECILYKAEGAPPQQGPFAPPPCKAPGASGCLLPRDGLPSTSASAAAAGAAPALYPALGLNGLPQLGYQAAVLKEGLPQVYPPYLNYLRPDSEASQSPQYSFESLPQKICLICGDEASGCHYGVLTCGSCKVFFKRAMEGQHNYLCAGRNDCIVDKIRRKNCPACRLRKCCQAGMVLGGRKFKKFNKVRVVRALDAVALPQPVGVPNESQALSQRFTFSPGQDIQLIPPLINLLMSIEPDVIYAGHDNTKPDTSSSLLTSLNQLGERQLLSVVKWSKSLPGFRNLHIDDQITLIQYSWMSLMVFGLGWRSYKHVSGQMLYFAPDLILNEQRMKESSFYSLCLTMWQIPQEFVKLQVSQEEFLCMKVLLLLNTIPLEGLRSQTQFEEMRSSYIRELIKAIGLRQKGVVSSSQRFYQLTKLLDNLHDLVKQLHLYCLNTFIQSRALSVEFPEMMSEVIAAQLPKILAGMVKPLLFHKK
quantity.kind: Emax (%)
Give just the numeric value; % need not be written.

Here are 5 molecules together with their reported answers.
molecule	assay.system	quantity.kind	endpoint.value
CC1=CC(C)(C)Nc2ccc3c(c21)/C(=C/c1ccncc1C)Oc1c(F)cc(F)cc1-3 [Compound 20]	hPR (Homo sapiens)	Emax	147
CC1=CC(C)(C)Nc2ccc3c(c21)C(c1cc2ccccc2s1)Oc1c(F)cc(F)cc1-3 (racemic) [Compound 63]	hPR (Homo sapiens)	Emax	154
CC#CC1Oc2c(F)cc(F)cc2-c2ccc3c(c21)C(C)=CC(C)(C)N3 (racemic) [Compound 74]	hPR (Homo sapiens)	Emax	89
CC(=O)[C@H]1CC[C@H]2[C@@H]3CCC4=CC(=O)CC[C@]4(C)[C@H]3CC[C@]12C [Prog., progesterone, reference compound]	hPR (Homo sapiens)	Emax	100
CC1=CC(C)(C)Nc2ccc3c(c21)/C(=C/c1ccccc1)Oc1c(F)cc(F)cc1-3 [Compound 10]	hPR (Homo sapiens)	Emax	153

So what's the measured Emax for this one? CC1=CC(C)(C)Nc2ccc3c(c21)/C(=C/c1cc(F)ccc1C)Oc1c(F)cc(F)cc1-3 [Compound 19]
212

Now consider CC1=CC(C)(C)Nc2ccc3c(c21)/C(=C/c1cc(F)ccc1F)Oc1c(F)cc(F)cc1-3 [Compound 17] .
169

Now consider CC1=CC(C)(C)Nc2ccc3c(c21)C(c1cccc(C)c1)Oc1c(F)cc(F)cc1-3 (racemic) [Compound 34] .
114

---

A collection of molecules and their measured hGR EC50 or IC50/hPR EC50
Target: hGR (Homo sapiens, UniProt P04150)
Sequence (P04150 whole entry): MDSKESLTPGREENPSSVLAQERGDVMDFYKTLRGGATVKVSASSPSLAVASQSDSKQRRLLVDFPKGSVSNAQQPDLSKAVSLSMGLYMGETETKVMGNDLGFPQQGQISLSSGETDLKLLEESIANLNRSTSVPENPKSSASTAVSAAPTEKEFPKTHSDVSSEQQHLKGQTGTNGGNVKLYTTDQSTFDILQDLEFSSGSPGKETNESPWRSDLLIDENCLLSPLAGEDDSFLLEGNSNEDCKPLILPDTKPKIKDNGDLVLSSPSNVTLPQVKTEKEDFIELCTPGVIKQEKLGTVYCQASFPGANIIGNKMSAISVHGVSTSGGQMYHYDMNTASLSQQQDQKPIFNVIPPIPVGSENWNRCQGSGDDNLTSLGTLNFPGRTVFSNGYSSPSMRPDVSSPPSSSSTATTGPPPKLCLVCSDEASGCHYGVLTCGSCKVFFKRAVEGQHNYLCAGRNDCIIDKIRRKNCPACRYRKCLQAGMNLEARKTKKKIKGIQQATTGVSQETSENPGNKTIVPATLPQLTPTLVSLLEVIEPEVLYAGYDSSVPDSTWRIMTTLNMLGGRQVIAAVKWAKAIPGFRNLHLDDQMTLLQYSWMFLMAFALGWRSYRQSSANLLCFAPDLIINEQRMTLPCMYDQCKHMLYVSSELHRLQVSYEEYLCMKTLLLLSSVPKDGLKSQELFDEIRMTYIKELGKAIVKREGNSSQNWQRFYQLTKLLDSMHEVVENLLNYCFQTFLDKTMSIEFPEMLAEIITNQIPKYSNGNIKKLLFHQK
Test: hGR cotransfection assay (potency ratio to hPR)
Format: cell-based
Conditions: receptor-selectivity potency ratio, cotransfection assays
Reply briefly: the number, and no unit.

Here are 2 molecules together with their reported answers.
molecule	endpoint.value
CC1=CC(C)(C)Nc2ccc3c(c21)/C(=C/c1ccccc1)Oc1c(F)cc(F)cc1-3	290
COc1ccc(F)cc1/C=C1\Oc2c(F)cc(F)cc2-c2ccc3c(c21)C(C)=CC(C)(C)N3	342

So what's the measured hGR EC50 or IC50/hPR EC50 for this one? `CC1=CC(C)(C)Nc2ccc3c(c21)/C(=C/c1ccncc1C)Oc1c(F)cc(F)cc1-3`
27

Now consider `CC1=CC(C)(C)Nc2ccc3c(c21)/C(=C/Br)Oc1c(F)cc(F)cc1-3` .
83

Now consider CC1=CC(C)(C)Nc2ccc3c(c21)C(c1ccccc1)Oc1c(F)cc(F)cc1-3 (racemic) .
10

Now consider `CC1=CC(C)(C)Nc2ccc3c(c21)/C(=C/c1cccc(F)c1)Oc1c(F)cc(F)cc1-3` .
30

Now consider `COc1ccccc1/C=C1\Oc2c(F)cc(F)cc2-c2ccc3c(c21)C(C)=CC(C)(C)N3` .
77

Now consider `CC1=CC(C)(C)Nc2ccc3c(c21)/C(=C/c1cc(F)ccc1C)Oc1c(F)cc(F)cc1-3` .
432

Now consider `CC1=CC(C)(C)Nc2ccc3c(c21)/C(=C/c1ccsc1)Oc1c(F)cc(F)cc1-3` .
19

Now consider `CC1=CC(C)(C)Nc2ccc3c(c21)/C(=C/c1cc(F)ccc1F)Oc1c(F)cc(F)cc1-3` .
66

---

Molecular target: UniProt P06401
Test: T47D alkaline phosphatase assay, agonist mode
Format: cell-based
Conditions: T47D human breast cancer cells
Please respond with label 1 when measured EC50 is strictly beneath 30 nM, and with label 0 in all other cases.

Example cases with answers are listed next.
compound	label
CC1=CC(C)(C)Nc2ccc3c(c21)C(c1ccc(Cl)c(C)c1)Oc1c(F)cc(F)cc1-3 (single isomer, unassigned; (-)) [Compound 38]	label 1
CC1=CC(C)(C)Nc2ccc3c(c21)C(c1cccc(Cl)c1)Oc1c(F)cc(F)cc1-3 (racemic)	label 0
CC1=CC(C)(C)Nc2ccc3c(c21)/C(=C/c1cccc(F)c1)Oc1c(F)cc(F)cc1-3	label 1
C#C[C@]1(O)CC[C@H]2[C@@H]3CCC4=CC(=O)CC[C@@H]4[C@H]3C(=C)C[C@@]21CC [3-ketodesogestrel, reference compound]	label 1
CC1=CC(C)(C)Nc2ccc3c(c21)/C(=C/c1cc(F)ccc1F)Oc1c(F)cc(F)cc1-3	label 1

Does the reported EC50 of CC#CC1Oc2c(F)cc(F)cc2-c2ccc3c(c21)C(C)=CC(C)(C)N3 (racemic) stay below 30 nM?
label 1

Now consider COC1Oc2c(F)cc(F)cc2-c2ccc3c(c21)C(C)=CC(C)(C)N3 (racemic) .
label 0

Now consider `CC1=CC(C)(C)Nc2ccc3c(c21)/C(=C/c1ccncc1)Oc1c(F)cc(F)cc1-3` .
label 0

Now consider CC1=CC(C)(C)Nc2ccc3c(c21)C(c1cccc(C)c1)Oc1c(F)cc(F)cc1-3 (racemic) .
label 0

Now consider `CC1=CC(C)(C)Nc2ccc3c(c21)/C(=C/c1ccncc1C)Oc1c(F)cc(F)cc1-3` .
label 1

Now consider CC1=CC(C)(C)Nc2ccc3c(c21)C(c1ccc(Cl)c(C)c1)Oc1c(F)cc(F)cc1-3 (single isomer, unassigned; (+)) [Compound 39] .
label 0

Now consider `CC1=CC(C)(C)Nc2ccc3c(c21)/C(=C/Br)Oc1c(F)cc(F)cc1-3` .
label 1

Now consider `COc1ccccc1/C=C1\Oc2c(F)cc(F)cc2-c2ccc3c(c21)C(C)=CC(C)(C)N3` .
label 1

---

Target: hPR (Homo sapiens)
Assay: hPR cotransfection assay in CV-1 cells, antagonist mode
Type: cell-based
Conditions: CV-1, CV-1 cells; maximal inhibition of reference agonist at EC50 concentration; read-out: hPR Antagonist CV-1 Cells Eff. (%)
quantity.kind: Emax

Here are 3 compounds together with their reported answers.
compound	Emax
CC1=CC(C)(C)Nc2ccc3c(c21)/C(=C/c1ccsc1)Oc1c(F)cc(F)cc1-3	< 20%
CC1=CC(C)(C)Nc2ccc3c(c21)/C(=C/c1ccncc1C)Oc1c(F)cc(F)cc1-3	< 20%
CC1=CC(C)(C)Nc2ccc3c(c21)/C(=C/c1cc(F)ccc1C)Oc1c(F)cc(F)cc1-3	< 20%

Kindly review the next compound as well.
So what's the measured Emax for this one? CN(C)c1ccc([C@H]2C[C@]3(C)[C@@H](CC[C@]3(O)CCCO)[C@@H]3CCC4=CC(=O)CCC4=C32)cc1 [ZK299, reference compound]
99%

---

Target: hPR-A (Homo sapiens)
Assay: Receptor competitive binding assay
Conditions: read-out: PR binding Ki
quantity.kind: log10 of Ki (log10 of the value in nM)
For clarity, the numbers are log10 values of Ki expressed in nM.

Here are 3 compounds together with their reported answers.
compound	endpoint.value
CC1=CC(C)(C)Nc2ccc3c(c21)/C(=C/c1ccncc1C)Oc1c(F)cc(F)cc1-3	0.46
CC1=CC(C)(C)Nc2ccc3c(c21)/C(=C/c1cccc(F)c1)Oc1c(F)cc(F)cc1-3	0.99
CC1=CC(C)(C)Nc2ccc3c(c21)/C(=C/c1cccs1)Oc1c(F)cc(F)cc1-3	0.90

So what's the measured log10 of Ki for this one? C#C[C@]1(O)CC[C@H]2[C@@H]3CCC4=CC(=O)CC[C@@H]4[C@H]3C(=C)C[C@@]21CC [3-ketodesogestrel, reference compound]
-0.52

Now consider COC1Oc2c(F)cc(F)cc2-c2ccc3c(c21)C(C)=CC(C)(C)N3 (racemic) .
1.57

Now consider CC1=CC(C)(C)Nc2ccc3c(c21)C(c1ccccc1)Oc1c(F)cc(F)cc1-3 (racemic) .
0.43

Now consider CC1=CC(C)(C)Nc2ccc3c(c21)C(c1cccc(C)c1)Oc1c(F)cc(F)cc1-3 (racemic) .
0.40

Now consider `CC1=CC(C)(C)Nc2ccc3c(c21)/C(=C/c1ccncc1)Oc1c(F)cc(F)cc1-3` .
0.78

Every entry's value here was drawn from patent US7163946B2.
